Biological target: CT-L activity of purified 20S proteasome (Homo sapiens, UniProt P20618+P28074)
Assay: in vitro CT-L activity of purified 20S proteasome
Format: biochemical
Conditions: Table 5; read-out: IC50 (μM) Chymotrypsin-like
TEST READOUT: IC50 (µM)

Solved entries:
molecule="CCCCCCc1ccc(OCC(=O)N(Cc2nc(-c3cccnc3)no2)C(C)C)cc1 [drawing 165]" result_number=0.428
molecule="Cc1ccc(OCC(=O)N(Cc2nc(-c3ccc(C)cc3)no2)CC(C)C)cc1 [drawing 111]" result_number=2.37
molecule="CCCCc1ccc(OCC(=O)N(Cc2nc(-c3cnccn3)no2)C(C)C)cc1 [drawing 166]" result_number=0.107
molecule=Cc1ccc(OCC(=O)N(Cc2coc(-c3ccccc3)n2)C(C)C)cc1 result_number=0.14
molecule="Cc1ccc(OCC(=O)N(Cc2nc(-c3ccc(C)cc3)no2)C(C)C)cc1 [drawing 107]" result_number=0.63
molecule=CC(C)c1ccc(OCC(=O)N(Cc2nc(-c3ccc(Cl)cc3)no2)C(C)C)cc1 result_number=5.13
molecule="CC(C)N(Cc1nc(-c2ccccc2)no1)C(=O)COc1ccccc1 [drawing 127]" result_number=6.22

I = CCCCCc1ccc(OCC(=O)N(Cc2nc(-c3cccnc3)no2)C(C)C)cc1 [drawing 164]
II = CC(C)N(Cc1nc(-c2ccc(C(F)(F)F)cc2)no1)C(=O)COc1ccc(C(F)(F)F)cc1 [drawing 115]
Of the two listed items, I and II , which carries the larger IC50 figure? Write the label of whichever entry you select. II
(II: 2.53 µM, I: 0.121 µM)

###

Biological target: CT-L activity of purified 20S proteasome (Homo sapiens, UniProt P20618+P28074)
Experiment: in vitro CT-L activity of purified 20S proteasome
Type: biochemical
Conditions: Table 5, @ 10 μM; read-out: Screening Results (% Inhibition @ 10 μM) Chymotrypsin-like
TEST READOUT: inhibition at 10 µM (%)

compound="Cc1ccc(OCC(=O)N(Cc2nc(-c3ccccc3)no2)C(C)C)cn1 [drawing 154]" measured_target="CT-L activity of purified 20S proteasome (Homo sapiens, UniProt P20618+P28074)" unit=% result_number=70.6
compound="Cc1ccc(NCC(=O)N(Cc2nc(-c3ccccc3)no2)C(C)C)cc1 [drawing 148]" measured_target="CT-L activity of purified 20S proteasome (Homo sapiens, UniProt P20618+P28074)" unit=% result_number=81.5

I = Cc1ccc(OCC(=O)N(Cc2nc(-c3ccc(C)cc3)no2)C(C)(C)C)cc1 [drawing 142]
II = Cc1ccc(OCC(=O)N(Cc2nc3ccccc3[nH]2)C(C)C)cc1 [drawing 151]
III = Cc1ccc(OCC(=O)N(Cc2nc(-c3ccc(C)cc3)no2)C2CC2)cc1 [drawing 172]
Place the items in sequence of falling inhibition at 10 µM. Return value: ordered labels per request. II, III, I

###

Target: CT-L activity of purified 20S proteasome (Homo sapiens, UniProt P20618+P28074)
Experiment: in vitro CT-L activity of purified 20S proteasome
Format: biochemical
Conditions: Table 2; read-out: IC50 (μM) Chymotrypsin-like activity
TEST READOUT: IC50 (µM)

1 = CCN(Cc1nc(-c2ccc(C)cc2)no1)C(=O)COc1ccc(C)cc1 [12b]
2 = Cc1ccc(OCC(=O)N(C)Cc2nc(-c3ccc(C)cc3)no2)cc1 [12c]
3 = Cc1ccc(OCC(=O)N(Cc2nc(-c3ccc(C)cc3)no2)C(C)C)cc1 [compound 1]
Please sort the molecules listed above from highest to lowest IC50. Return value: ordered labels per request. 2, 1, 3
(2: 29.9 µM, 1: 8.98 µM, 3: 0.63 µM)
